Tested on: IGROV1 ovarian
Measurement notes: NCI tumour cell line growth inhibition, 48 h
Where a SMILES comes first, the peptide text is derived from it. [ ]: non-standard residue; d: D form. The star is where a group is joined. ξ: configuration not given here. ξHyp = O=C(O)C1CC(O)CN1; Cbz = O=C(OCc1ccccc1)*
Property measured: TGI

Known TGI results, listed for orientation:
O=c1oc2ccccc2c(O)c1C(C/C(CCN1CCCC1)=N/O)c1ccccc1 (stereo unspecified) | > 100 µM
NC(=O)CNC(=O)C1CC(O)CN1C(=O)OCc1ccccc1 (stereo unspecified) (Cbz-[ξHyp]-Gly-NH2) | > 100 µM
CC1[C@@H]2CC=C3C4CCC5Cc6nc7c(nc6C[C@@]5(C)C4CC(=O)[C@]32CO[C@@]1(O)C(O)CC(C)(C)O)CC1CCC2C3=C[C@H]4O[C@@]5(O[C@@](C)(CO)C[C@@H]5O)C(C)[C@@]4(O)[C@]3(C)[C@@H](O)CC2[C@]1(C)C7 (stereo partly specified) | 0.736 µM
COC(=O)[C@]1(C)CCC[C@]2(C)[C@H]3CC[C@]4(C(C)C)OO[C@@H](O4)[C@]34O[C@@H]4C[C@H]21 | 0.336 µM
COC(=O)CCC(C)[C@H]1CCC2C3C(C[C@H](OC(C)=O)[C@@]21C)[C@@]1(C)CCC2(C[C@H]1C[C@H]3OC(C)=O)OOC1(CCC(C(C)(C)C)CC1)OO2 (stereo partly specified) | 48.8 µM

Working through the 2 molecules below one at a time, give TGI for each.
1. COC1OC(Cn2c(C)nc(Br)c2Br)C(O)C(O)C1O (stereo unspecified)
2. O=C(O)C1(Cc2ccccc2)Cc2ccccc2C1

["> 100 µM", "> 100 µM"]

Working through the 6 molecules below one at a time, give TGI for each.
1. CS(=O)(=O)c1ccc(NNc2cc(=O)[nH]c(=O)[nH]2)cc1
2. Clc1ccc(-c2nc(-c3ccccc3)cn3ccnc23)cc1
3. Cc1ccc(-c2cc(=S)n(-c3ccccc3)c3nc(=S)n(-c4ccccc4)c(N)c23)cc1
4. CNc1nc(N)cc(=O)[nH]1
5. N=C(N)c1ccc(-c2ccc(-c3cccs3)o2)cc1
6. N#CCCN(CCC#N)c1ccc(/C=C2\N=C(c3cc([N+](=O)[O-])ccc3Cl)N(S(=O)(=O)c3ccccc3)C2=O)cc1

1. > 100 µM
2. > 100 µM
3. > 100 µM
4. > 100 µM
5. 3.83 µM
6. > 100 µM

Working through the 8 molecules below one at a time, give TGI for each.
1. O=C1CC2C=CC1C2CO (stereo unspecified)
2. CCCCCCCCCCCCCCCC[N+](C)(C)Cc1ccc(F)cc1
3. Cc1ccc(C2=C(c3ccccc3)C(=O)C(c3ccccc3)=C2c2ccc(C)cc2)cc1
4. COc1ccc2c(c1)C(=O)c1c-2c(=O)n(CCCCCCC(=O)NO)c2ccccc12
5. O=C(Cc1ccc(OCc2ccccc2)cc1)NCc1ccc2c(c1)OCO2
6. COc1ccc(N2CCOCC2)cc1
7. Cc1cc(C)c(-n2c(-c3ccccc3)cs/c2=N\N=C2C=C(C(C)(C)C)C(=O)C(C(C)(C)C)=C2)c(C)c1
8. C/C1=C\CC[C@@]2(C)O[C@@H]2C[C@@H]2[C@H](C/C(C)=C/CC1)OC(=O)C21CC1

["> 100 µM", "1.57 µM", "> 100 µM", "12.2 µM", "> 100 µM", "> 100 µM", "> 100 µM", "72.7 µM"]
